- System under test: human GLP-1 receptor (hGLP-1R) (human, UniProt P43220 24-463)
- Test: cell-based or functional assay
Starred links: 1 amine or outer side, 2 acyl side, 3 side chain; linkers in the order of their positions; H or OH if unused. Non-standard residues stand in square brackets, D forms with d. Groups on a side chain read outwards from the residue. Primed or numbered codes have the meaning given here. No end group written: not given here. *: point of attachment. Dip = N[C@H](C(=O)O)C(c1ccccc1)c1ccccc1; Heptadecanoyl = CCCCCCCCCCCCCCCCC(=O)*; γGlu = O=C(O)[C@H](CCC(=O)[*:2])N[*:1]; Stearoyl = CCCCCCCCCCCCCCCCCC(=O)*; Palmitoyl = CCCCCCCCCCCCCCCC(=O)*; αMeF = C[C@](N)(Cc1ccccc1)C(=O)O; Myristoyl = CCCCCCCCCCCCCC(=O)*; (PEG)2 = polyethylene glycol 2; PEG2′ = polyethylene glycol 2; Aib = CC(C)(N)C(=O)O
Measurement type: hGLP-1R EC50 (pM)
Numeric only. Scale: pM

Here is how some binders turned out for hGLP-1R EC50 (pM).
Dear colleague, I am looking for the recorded hGLP-1R EC50 (pM) of the following binder: H[Aib]QGS[αMeF]TSDVSK[Dip]LDSK([(PEG)2-(PEG)2-γGlu-Palmitoyl])AAQD[αMeF]VQ[Aib]IAN-NH2 [Peptide 67]
2.43

hGLP-1R EC50 (pM) lookup needed for HSQGS[αMeF]TSDVSK[Dip]LDSK([(PEG)2-γGlu-(PEG)2-γGlu-Stearoyl])AAQD[αMeF]VE[Aib]IINT-NH2 [Peptide 61] , thanks.
4.12

Please report the recorded hGLP-1R EC50 (pM) for HSQGS[αMeF]TSDVSKILDSK([PEG2′-PEG2′-γGlu-γGlu-Palmitoyl])AAQD[αMeF]VQ[Aib]IINT-NH2 [Peptide 118] .
1.07

For the binder shown here, HSQGS[αMeF]TSDVSKILDSKAAQD[αMeF]VQ[Aib]IAN-NH2 (not fully specified (residue 17)) [Peptide 111] , give the reported hGLP-1R EC50 (pM).
1.92

Name the reported hGLP-1R EC50 (pM) value associated with the binder HSQGS[αMeF]TSDVSK[Dip]LDSK([γGlu-γGlu-(PEG)2-(PEG)2-Stearoyl])AAQD[αMeF]VE[Aib]IINT-NH2 [Peptide 59]
6.18

***
Return reported hGLP-1R EC50 (pM); argument: HSQGS[αMeF]TSDVSKILDSK([PEG2′-PEG2′-γGlu-γGlu-Myristoyl])AAQD[αMeF]VQ[Aib]IINT-NH2 [Peptide 119]
1.39

I would be grateful if you could share the reported hGLP-1R EC50 (pM) for HSQGS[αMeF]TSDVSK[Dip]LDSK([(PEG)2-(PEG)2-γGlu-γGlu-Myristyl])AAQD[αMeF]VE[Aib]IINT-NH2 [Peptide 63] .
3.14

Need hGLP-1R EC50 (pM), item HSQGS[αMeF]TSDVSK[αMeF]LDSK([(PEG)2-(PEG)2-γGlu-γGlu-Palmitoyl])AAQD[αMeF]VQ[Aib]IAN-NH2 [Peptide 87]
1.29

// returns reported hGLP-1R EC50 (pM) for input HSQGS[αMeF]TSDVSK[αMeF]LDSK([(PEG)2-(PEG)2-γGlu-γGlu-Heptadecanoyl])AAQD[αMeF]VQ[Aib]IAN-NH2 [Peptide 88]
1.04
